Ref: ChEMBL document CHEMBL1201862

For each record, write down the corresponding GI50.
System: SR
Assay: NCI tumour cell line growth inhibition, 48 h
The source made the active and inactive calls. Rule as the data show it: active = GI50 up to about 1.1 µM and inactive = higher.

Using the record for CC1OC(O[C@H]2CC[C@]3(C)[C@H]4CC=C5[C@@H]6[C@@H](C)[C@H](C)CC[C@]6(C(=O)OC6OC(CO)C(O)C(O)C6O)CC[C@@]5(C(=O)O)[C@]4(C)CC[C@H]3C2(C)C)C(O)C(O)C1O (some centres not stated) , report its GI50.
> 100 µM (inactive)

Using the record for c1ccc2cc3c(NC4=NCCO4)cccc3cc2c1 , report its GI50.
36 µM (inactive)

Using the record for O=S(=O)(O)c1ccc2cccc(/N=N\c3c(O)ccc4ccccc34)c2c1 , report its GI50.
> 100 µM (inactive)

Using the record for O=C(C1=CCC2(CC1)OCCO2)N(Cc1ccccc1)c1ccccc1I , report its GI50.
12.8 µM (inactive)

Using the record for Cc1ccc(Nc2nc(=O)[nH]c(=O)[nH]2)cc1N=[N+]=[N-] , report its GI50.
> 100 µM (inactive)

Using the record for CCN(CC)c1cc2c3c(c1)CCCN3CCC2 , report its GI50.
> 10 µM (inactive)

Using the record for COC(=O)C1(Cc2ccccc2)Cc2cc3c(cc2C1)CCC3 , report its GI50.
13 µM (inactive)

Using the record for C=CC(Br)(CBr)CCC(Br)C(C)(C)Cl (configuration not stated) , report its GI50.
1.66 µM (inactive)

Using the record for COc1cc(C(=O)Nc2cccc3ccccc23)c(Br)c(OC)c1OC , report its GI50.
> 100 µM (inactive)

Using the record for Cc1ccc(C2=C(C#N)C(=O)N3CCN=C3S2)cc1 , report its GI50.
> 100 µM (inactive)

Using the record for NS(=O)(=O)c1nnc(/N=C(/CCC(=O)O)C(=O)O)s1 , report its GI50.
> 100 µM (inactive)

Using the record for N#C/C(=C\c1cc(Cl)cc(Cl)c1)c1ccccn1 , report its GI50.
6.27 µM (inactive)

Using the record for COC(=O)c1ccccc1NC(=O)C(=O)NNC(=O)c1ccncc1 , report its GI50.
> 100 µM (inactive)

Using the record for COC(=O)CCC(=O)N1CC1C (configuration not stated) , report its GI50.
> 100 µM (inactive)

Using the record for COc1c(-c2nc3ccc(N4CCN(C)CC4)nc3[nH]2)cc(OC)c2[nH]c(CO)nc12 , report its GI50.
> 100 µM (inactive)

Using the record for CN(C)c1ccc(/C=C/C(=O)c2ccc(O)cc2)cc1 , report its GI50.
0.33 µM (active)

Using the record for C1=CC2C=CC(C=C1)P2c1ccccc1 (configuration not stated) , report its GI50.
> 100 µM (inactive)

Using the record for O=C(O)Cn1ccc(=O)c2ccc([N+](=O)[O-])cc21 , report its GI50.
> 100 µM (inactive)

Using the record for NC(=O)CC(N)c1nnn[nH]1 (configuration not stated) , report its GI50.
> 100 µM (inactive)

Using the record for CC(C)(C)OC(=O)NC(CCC(=O)OCc1ccccc1)C(=O)NCCCO (configuration not stated) , report its GI50.
> 100 µM (inactive)

Using the record for Clc1ccc(C(Cc2cccc(Cl)c2)c2c(Cl)nc(N3CCNCC3)nc2Cl)cc1 (configuration not stated) , report its GI50.
5.38 µM (inactive)

Using the record for c1ccc([C@@H]2N[C@@]3(CO[Si](c4ccccc4)(c4ccccc4)c4ccccc4)CC[C@H]4CN[C@@H]2[C@H]43)cc1 , report its GI50.
3.15 µM (inactive)
